- measurementTarget: Ribosomal protein S6 kinase alpha-5 (Homo sapiens);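 further: mean inhibition of MSK1, from screening of the GSK PKIS inhibitor set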
- measurementSetup: at 1 µM
Task for the reader: assign each of the following molecules its reported inhibition.
Answers are plain numbers, in %.

CCn1c(-c2nonc2N)nc2cncc(C(=O)N3CC[C@H](N)C3)c21 | 81.4
O=C1NC(=O)C(c2ccc(Cl)cc2)=C1Nc1ccc(Cl)c(C(=O)O)c1 | -1.95
COc1cc2ncn(-c3cc(O[C@H](C)c4ccccc4Cl)c(C(N)=O)s3)c2cc1OC | 3.73

# map each molecule to its inhibition
1. NCc1ccc(-c2nc(-c3ccc(Cl)c(O)c3)c(-c3ccncc3)[nH]2)cc1
2. COC(=O)Nc1nc2cc(Oc3cccc(NC(=O)Nc4cc(C(F)(F)F)ccc4F)c3)ccc2[nH]1
3. Cc1ccc(NC(=O)c2ccnc(N3CCCC3)c2)cc1-c1ccc(C(=O)NCC2CC2)cc1

Completion:
1. 2.56
2. 1.11
3. 2.72

###

Task for the reader: assign each of the following molecules its reported inhibition.
- measurementTarget: Serine/threonine-protein kinase MARK1 (Homo sapiens) (UniProt Q9P0L2)
- Sequence (Q9P0L2 whole entry, looked up): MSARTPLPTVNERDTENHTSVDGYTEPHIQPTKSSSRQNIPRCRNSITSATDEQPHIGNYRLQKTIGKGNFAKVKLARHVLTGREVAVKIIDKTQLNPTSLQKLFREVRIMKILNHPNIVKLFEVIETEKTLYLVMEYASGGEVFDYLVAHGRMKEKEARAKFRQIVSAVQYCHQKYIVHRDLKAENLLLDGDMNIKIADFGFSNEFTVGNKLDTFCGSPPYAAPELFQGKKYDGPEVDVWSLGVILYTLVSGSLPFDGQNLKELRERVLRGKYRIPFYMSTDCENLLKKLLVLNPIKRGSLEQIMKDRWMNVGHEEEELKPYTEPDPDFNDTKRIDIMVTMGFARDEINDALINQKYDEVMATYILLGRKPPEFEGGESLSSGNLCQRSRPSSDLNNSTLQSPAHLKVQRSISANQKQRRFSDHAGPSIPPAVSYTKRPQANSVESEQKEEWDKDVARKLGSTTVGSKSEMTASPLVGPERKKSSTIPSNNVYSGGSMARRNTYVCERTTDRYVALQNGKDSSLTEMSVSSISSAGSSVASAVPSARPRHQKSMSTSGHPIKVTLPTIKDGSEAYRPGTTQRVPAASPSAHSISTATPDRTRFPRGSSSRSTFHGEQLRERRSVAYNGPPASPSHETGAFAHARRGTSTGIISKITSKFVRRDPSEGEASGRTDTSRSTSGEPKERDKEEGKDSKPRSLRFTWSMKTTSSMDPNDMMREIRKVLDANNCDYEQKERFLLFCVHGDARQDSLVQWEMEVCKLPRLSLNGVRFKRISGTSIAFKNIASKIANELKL
- measurementSetup: at 0.1 µM
- Description: GSK_PKIS: MARK1 mean inhibition at 0.1 uM [Nanosyn]
One number for each entry, in %.

COc1ccc(-c2nn3ncccc3c2-c2ccnc(Nc3ccc(Cl)c(C(F)(F)F)c3)n2)cc1 | 2.21
NC(=O)c1cccc(Nc2nccc(Nc3cccc4[nH]ncc34)n2)c1 | -1.84

# map each molecule to its inhibition
1. COc1ccc(-c2coc3ncnc(N)c23)cc1
2. CCCN1CCC(Oc2cc(Nc3nc(Nc4cccc(F)c4C(N)=O)c4cc[nH]c4n3)c(OC)cc2Cl)CC1
3. COc1cc2ncn(-c3cc(OCc4ccccc4C(F)(F)F)c(C(N)=O)s3)c2cc1OC
4. COc1cc2c(cc1Nc1nc(N3CCc4ccccc43)c3cc[nH]c3n1)N(C(=O)CN(C)C)CC2
5. O=C1NC(=O)C(c2ccccc2Cl)=C1Nc1cccc(O)c1
6. O=C1Nc2ccc(C(=O)c3ccco3)cc2C1=Cc1cc(Cl)c(O)c(Cl)c1

Completion:
[4.41, -1.22, 4.83, 1.84, 1.97, 3.54]

###

- measurementTarget: Serine/threonine-protein kinase TBK1 (Homo sapiens) (UniProt Q9UHD2);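 further: values are the mean TBK1 inhibition, taken from the GSK PKIS screening data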
- Sequence (whole entry): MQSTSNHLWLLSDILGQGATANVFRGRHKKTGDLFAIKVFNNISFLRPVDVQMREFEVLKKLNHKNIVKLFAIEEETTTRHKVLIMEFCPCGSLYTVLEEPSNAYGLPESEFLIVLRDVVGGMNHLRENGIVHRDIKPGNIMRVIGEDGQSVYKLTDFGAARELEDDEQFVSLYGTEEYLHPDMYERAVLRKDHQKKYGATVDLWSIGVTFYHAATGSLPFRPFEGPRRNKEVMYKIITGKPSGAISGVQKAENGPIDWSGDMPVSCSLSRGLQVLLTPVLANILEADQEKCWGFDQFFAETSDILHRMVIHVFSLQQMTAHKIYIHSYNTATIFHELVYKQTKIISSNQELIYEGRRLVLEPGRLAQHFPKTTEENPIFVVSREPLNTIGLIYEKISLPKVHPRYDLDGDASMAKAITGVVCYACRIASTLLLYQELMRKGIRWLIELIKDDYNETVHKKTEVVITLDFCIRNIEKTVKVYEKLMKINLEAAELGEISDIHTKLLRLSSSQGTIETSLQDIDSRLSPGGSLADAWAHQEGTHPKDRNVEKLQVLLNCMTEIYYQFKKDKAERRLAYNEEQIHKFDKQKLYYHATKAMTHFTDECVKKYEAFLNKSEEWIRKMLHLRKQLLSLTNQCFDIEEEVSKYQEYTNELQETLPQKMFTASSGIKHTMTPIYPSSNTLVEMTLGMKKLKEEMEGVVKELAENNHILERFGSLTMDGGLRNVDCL
- measurementSetup: at 0.1 µM
reportedEndpoint: inhibition (%)
One number for each entry, in %.

Use these answered entries as a reference point.
COc1cc2ncn(-c3cc(O[C@@H](C)c4ccccc4Cl)c(C(N)=O)s3)c2cc1OC | 4.39
COc1cc2ncn(-c3cc(OCc4ccccc4Cl)c(C(N)=O)s3)c2cc1OC | 3.64
Fc1cccc(COc2ccc(Nc3ncnc4cc(-c5ccc[nH]5)sc34)cc2Cl)c1 | 2.35
Nc1ncnc2occ(-c3ccc(NC(=O)Nc4cccc(C(F)(F)F)c4)cc3)c12 | 3.95
c1cnn2ncc(-c3ccnc(Nc4ccc5c(c4)OCCO5)n3)c2c1 | 3.41
CCn1c(-c2nonc2N)nc2c(C#CC(C)(C)O)nc(OC[C@@H](N)c3ccccc3)cc21 | 0.4
CN1CCC(C(=O)Nc2n[nH]c3nnc(-c4ccccc4)cc23)CC1 | 2.09
COc1cc(C=NNc2ncnc3c2cnn3-c2ccccc2)ccc1O | 3.55

# map each compound to its inhibition
1. CC(=O)Nc1cccc(C#Cc2cncnc2Nc2ccc(OCc3cccc(F)c3)c(Cl)c2)n1
2. CCN1CCC(CC(=O)Nc2n[nH]c3nc(-c4cccs4)c(Br)cc23)CC1
3. CC(C)=Cc1cccc2c1/C(=N/Nc1ccc(S(N)(=O)=O)cc1)C(=O)N2
4. CCCN1CCC=C(c2ccc(Nc3nc(Nc4ccccc4C(N)=O)c4cc[nH]c4n3)c(C)c2)C1
5. Nc1ncnc2occ(-c3ccc(NC(=O)Nc4cc(C(F)(F)F)cc(C(F)(F)F)c4)cc3)c12
6. O=C(Nc1n[nH]c2nc(-c3ccco3)c(Br)cc12)C1CC1
7. CCn1c(-c2nonc2N)nc2c(N3CCCC3)nccc21
8. [O-][S+]1CCN(Cc2ccc(-c3ccc4ncnc(Nc5ccc(OCc6ccccc6)c(F)c5)c4c3)o2)CC1

Completion:
1: 1.99; 2: -0.25; 3: 3.78; 4: 3.95; 5: -0.65; 6: 6.52; 7: -0.24; 8: 1.1
